Tested System: antibody antigen (CD47) coated in the ELISA of Example 3 (UniProt Q08722)
Sequence (Q08722 19-139 limits assumed): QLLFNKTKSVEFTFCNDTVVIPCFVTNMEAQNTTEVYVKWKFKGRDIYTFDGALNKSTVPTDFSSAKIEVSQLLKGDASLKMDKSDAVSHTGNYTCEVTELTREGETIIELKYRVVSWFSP
Experiment Summary: ELISA on coated antigen, ratio against wild-type 70H1
Quantity Measured: Mutant Binding Strength (EC50 post-mutation / EC50 wild-type)

Binder	Quantitative Result
70H1 mutant VL-27 Q to C (antibody, V domains shown) VH: QQQLEESGGGLVKPEGSLTLTCTASGFSFSSGYDMCWVRQAPGRGLEWIACIYTRSSGGTYYASWAKGRFTISKTSSTVDLRMTSLTAADTATYFCAGGRSSYRLNLWGQGALVTVSS VL: DVVMTQTPSPVEAAVGGTVTIKCQASCSISNELSWYQQKPGQPPKLLIYRASTLESGVSSRFKGSGSGTEFTLTISDLECADAATYYCQSTFYGDYGNAFGGGTEVVVK	1
